- Test system: Candida albicans
- protocol.text: Antifungal activity against Candida albicans MTCC 227 assessed as growth inhibition after 24 hr by agar well diffusion method
- Assay type: functional
- experimental.conditions: MTCC 227, 24 h
readout.name: MIC

Consider the following illustrative entries.
- compound: "Cc1ccc(-c2cc(C(F)(F)F)c3c(-c4ccccc4)nn(-c4ccc(S(N)(=O)=O)cc4)c3n2)cc1"
  MIC: "64 µg/mL"
- compound: "Cc1ccc(-c2nn(-c3ccc(S(N)(=O)=O)cc3)c3nc(-c4ccc5ccccc5c4)cc(C(F)(F)F)c23)cc1"
  MIC: "32 µg/mL"
- compound: "NS(=O)(=O)c1ccc(-n2nc(-c3ccccc3)c3c(C(F)(F)F)cc(C(F)(F)F)nc32)cc1"
  MIC: "64 µg/mL"
- compound: "NS(=O)(=O)c1ccc(-n2nc(-c3ccccc3)c3c(C(F)(F)F)cc(-c4ccc(F)cc4)nc32)cc1"
  MIC: "128 µg/mL"
- compound: "C[C@@H]1[C@H](O)[C@@H](C)/C=C/C=C/C=C/C=C/C=C/C=C/C=C/[C@H](O[C@@H]2O[C@H](C)[C@@H](O)[C@H](N)[C@@H]2O)C[C@@H]2O[C@](O)(C[C@@H](O)C[C@@H](O)[C@H](O)CC[C@@H](O)C[C@@H](O)CC(=O)O[C@H]1C)C[C@H](O)[C@H]2C(=O)O [AMPHOTERICIN B]"
  MIC: "20 µg/mL"

Shifting focus to the compound that follows.
What does the record list as MIC for NS(=O)(=O)c1ccc(-n2nc(-c3ccccc3)c3c(C(F)(F)F)cc(-c4ccccc4)nc32)cc1 ?
64 µg/mL
